# target-desc: HEK 293 GPR73 (prokineticin 1 receptor) expressing cells (Homo sapiens, UniProt Q8TCW9)
# Sequence (Q8TCW9 whole entry): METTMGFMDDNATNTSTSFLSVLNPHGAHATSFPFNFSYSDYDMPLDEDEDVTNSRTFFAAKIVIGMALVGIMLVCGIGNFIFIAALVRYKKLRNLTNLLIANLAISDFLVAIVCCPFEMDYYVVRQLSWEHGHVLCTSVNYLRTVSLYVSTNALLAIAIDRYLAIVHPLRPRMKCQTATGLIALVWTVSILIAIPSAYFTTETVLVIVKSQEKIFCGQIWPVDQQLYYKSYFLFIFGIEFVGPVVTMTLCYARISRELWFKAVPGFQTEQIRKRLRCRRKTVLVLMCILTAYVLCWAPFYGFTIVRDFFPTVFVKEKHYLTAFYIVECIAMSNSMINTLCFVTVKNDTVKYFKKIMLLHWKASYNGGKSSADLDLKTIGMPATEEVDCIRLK
# protocol-summary: PK1 functional assay: screening for PK1 antagonists on the FLIPR (calcium fluorescence)
# setup-conditions: HEK 293 GPR73 cells, PK1 ligand at EC50, multiple values = repeat tests, read-out: Ca^2+ Mobilization IC50
pIC50: −log10 of the molar value.
outcome-measure: pIC50

Take a look at these entries with their results.
compound: CC(C)(C)c1ccc(Cn2c(NCCNC(=N)N)nc(=O)n(Cc3ccccc3)c2=O)cc1 [Cpd 8]
recorded-value: 5.41

compound: COc1ccc(Cn2c(NCCNC(=N)N3CCOCC3)nc(=O)n(Cc3ccc(F)cc3)c2=O)cc1 [Cpd 140]
recorded-value: 6.34

compound: COc1ccc(Cn2c(NCCNC(=N)Nc3ccc(C)cn3)nc(=O)n(Cc3ccc(F)cc3)c2=O)cc1 [Cpd 139]
recorded-value: 7.74

P. COc1ccc(Cn2c(NCCNC(=N)N)nc(=O)n(Cc3ccc(C#N)cc3)c2=O)cc1 [Cpd 97]
Q. COc1ccc(Cn2c(NCCNC(=N)NC(C)C)nc(=O)n(Cc3ccc(F)cc3)c2=O)cc1 [Cpd 153]
R. N=C(N)NCCNc1nc(=O)n(Cc2ccccc2)c(=O)n1Cc1ccc(OC(F)(F)F)cc1 [Cpd 19]
S. COc1ccc(Cn2c(NCCNC(=N)NCc3ccccc3)nc(=O)n(Cc3ccc(Cl)c(Cl)c3)c2=O)cc1 [Cpd 63]
Ask: Give the ascending ranking of the items by reported pIC50. Returns: the labels arranged in the requested order.
Reply: R, P, S, Q
(R: 6.06, P: 6.50, S: 6.92, Q: 7.89)

* * *

# target-desc: HEK 293 GPR73 (prokineticin 1 receptor) expressing cells (Homo sapiens, UniProt Q8TCW9)
# protocol-summary: PK1 functional assay: screening for PK1 antagonists on the FLIPR (calcium fluorescence)
# setup-conditions: HEK 293 GPR73 cells, PK1 ligand at EC50, multiple values = repeat tests, read-out: Ca^2+ Mobilization IC50
outcome-measure: IC50 (µM)

Observe how each entry below is paired with its result.
molecule: N=C(N)NCCNc1nc(=O)n(Cc2ccc(Cl)cc2)c(=O)n1Cc1ccoc1 [Cpd 130]
outcome-measure: IC50
recorded-value: 1.87
--
molecule: COc1ccc(Cn2c(NCCNC(=N)NCCc3ccccc3)nc(=O)n(Cc3ccc(Cl)c(Cl)c3)c2=O)cc1
outcome-measure: IC50
recorded-value: 0.485
--
molecule: COc1ccc(Cn2c(NCCNC(=N)N3CCCCC3)nc(=O)n(Cc3ccc(F)cc3)c2=O)cc1
outcome-measure: IC50
recorded-value: 0.057
--
molecule: COc1ccc(Cn2c(NCCCCCCNC(=N)N)nc(=O)n(Cc3ccc(Cl)cc3)c2=O)cc1
outcome-measure: IC50
recorded-value: 1.33
--
molecule: COc1ccc(Cn2c(NCCNC(=N)N)nc(=O)n(CCc3ccccc3)c2=O)cc1
outcome-measure: IC50
recorded-value: 2.5
--
molecule: [H]/N=C(\N)NCCNc1nc(=O)n(Cc2ccc(C(=O)OC)cc2)c(=O)n1Cc1ccc(OC)cc1
outcome-measure: IC50
recorded-value: 0.794
--
molecule: COC(=O)c1ccc(Cn2c(NCCNC(=N)N)nc(=O)n(Cc3ccccc3)c2=O)cc1
outcome-measure: IC50
recorded-value: 4.96
--
molecule: CCCCn1c(=O)nc(NCCNC(=N)N)n(Cc2ccc(OC)cc2)c1=O
outcome-measure: IC50
recorded-value: 2.18
--
molecule: COc1ccc(Cn2c(NCCNC(=N)Nc3ccc([N+](=O)[O-])cc3)nc(=O)n(Cc3ccc(F)cc3)c2=O)cc1
outcome-measure: IC50
recorded-value: 0.054
--
molecule: CCCCNC(=N)NCCNc1nc(=O)n(Cc2ccc(Cl)c(Cl)c2)c(=O)n1Cc1ccc(OC)cc1
outcome-measure: IC50
recorded-value: 0.045

P. COc1ccc(Cn2c(NCCNC(=N)Nc3nc4c(c(C(F)(F)F)n3)CCCC4)nc(=O)n(Cc3ccc(F)cc3)c2=O)cc1
Q. COc1ccc(Cn2c(NCCNC(=N)Nc3ccc(OC)cc3)nc(=O)n(Cc3ccc(Cl)c(Cl)c3)c2=O)cc1
R. COc1ccc(Cn2c(NCCNC(=N)N)nc(=O)n(Cc3ccccc3F)c2=O)cc1
S. N=C(N)NCCNc1nc(=O)n(Cc2ccccc2)c(=O)n1Cc1ccc(C(F)(F)F)cc1
Ask: Rank the 4 molecules: largest IC50 first, smallest last. Quick reminder: the answer is the labels in the order asked.
Reply: S, P, R, Q
(S: 6.11 µM, P: 1.34 µM, R: 0.836 µM, Q: 0.064 µM)

* * *

# target-desc: HEK 293 GPR73 (prokineticin 1 receptor) expressing cells (Homo sapiens, UniProt Q8TCW9)
# Construct: expressed in transfected cells; host or cells: HEK 293
# protocol-summary: PK1 functional assay: screening for PK1 antagonists on the FLIPR (calcium fluorescence)
# Assay type: cell-based
# setup-conditions: HEK293, compound at 10 μM, HEK 293 GPR73 cells, multiple values = repeat tests, read-out: Ca^2+ Mobilization % Inh @10 μM
outcome-measure: inhibition at 10 µM (%)

A. COc1ccc(Cn2c(N[C@@H]3CCCC[C@H]3NC(=N)N)nc(=O)n(Cc3ccc(Cl)cc3)c2=O)cc1
B. NC(N)=NCCNc1nc(=O)n(Cc2ccccc2)c(=O)n1Cc1ccc(F)cc1
C. COc1ccc(Cn2c(N[C@@H](C)[C@H](C)NC(=N)N)nc(=O)n(Cc3ccc(F)cc3)c2=O)cc1
Ask: Please list these in order of increasing inhibition at 10 µM. Thank you! Answer by writing out the labels in the requested order.
Reply: B, C, A
(B: 30%, C: 50%, A: 98%)

* * *

# target-desc: HEK 293 GPR73 (prokineticin 1 receptor) expressing cells (Homo sapiens, UniProt Q8TCW9)
# Construct: expressed in transfected cells; host or cells: HEK 293
# protocol-summary: PK1 functional assay: screening for PK1 antagonists on the FLIPR (calcium fluorescence)
# Assay type: cell-based
# setup-conditions: HEK293, compound at 10 μM, HEK 293 GPR73 cells, multiple values = repeat tests, read-out: Ca^2+ Mobilization % Inh @10 μM
outcome-measure: inhibition at 10 µM (%)

Examples with answers:
molecule: COc1ccc(Cn2c(N[C@H]3CCCC[C@@H]3NC(=N)N)nc(=O)n(Cc3ccc(Cl)c(Cl)c3)c2=O)cc1 [Cpd 43]
outcome-measure: inhibition at 10 µM
unit-of-measurement: %
recorded-value: 31

molecule: COc1ccc(Cn2c(NCCNC(=N)N)cc(=O)n(Cc3ccc(OC)cc3)c2=O)cc1 [Cpd 84]
outcome-measure: inhibition at 10 µM
unit-of-measurement: %
recorded-value: 99

molecule: N=C(N)NCCNc1nc(=O)n(Cc2ccccc2)c(=O)n1Cc1ccc(C(F)(F)F)cc1 [Cpd 15]
outcome-measure: inhibition at 10 µM
unit-of-measurement: %
recorded-value: 55

molecule: COc1ccc(Cn2c(NCCNC(=N)N(C)c3ccccc3)nc(=O)n(Cc3ccc(F)cc3)c2=O)cc1 [Cpd 117]
outcome-measure: inhibition at 10 µM
unit-of-measurement: %
recorded-value: 79

molecule: N=C(N)NCCNc1nc(=O)n(Cc2ccc(F)cc2)c(=O)n1Cc1ccc([N+](=O)[O-])cc1 [Cpd 87]
outcome-measure: inhibition at 10 µM
unit-of-measurement: %
recorded-value: 38

A. COc1ccc(Cn2c(NCCNC(=N)NC#N)nc(=O)n(Cc3ccc(Cl)c(Cl)c3)c2=O)cc1 [Cpd 28]
B. COc1ccc(Cn2c(NCCNC(=N)N)nc(=O)n(Cc3cccc([N+](=O)[O-])c3)c2=O)cc1 [Cpd 94]
Ask: Which one would you say has the larger inhibition at 10 µM value: A , or B ? Your answer should be the label attached to the chosen record.
Reply: A

A. COc1ccc(Cn2c(NCCNC(=N)Nc3ccc([N+](=O)[O-])cc3)nc(=O)n(Cc3ccc(F)cc3)c2=O)cc1 [Cpd 91]
B. COc1ccc(Cn2c(NCCNC(=N)N)nc(=O)n(Cc3ccco3)c2=O)cc1 [Cpd 6]
Ask: Two entries are listed, A and B . Which one carries the higher inhibition at 10 µM? Indicate your choice by writing its label.
Reply: A

* * *

# target-desc: HEK 293 GPR73 (prokineticin 1 receptor) expressing cells (Homo sapiens, UniProt Q8TCW9)
# Construct: expressed in transfected cells; host or cells: HEK 293
# protocol-summary: PK1 functional assay: screening for PK1 antagonists on the FLIPR (calcium fluorescence)
# Format: cell-based
# setup-conditions: HEK293, compound at 10 μM, HEK 293 GPR73 cells, multiple values = repeat tests, read-out: Ca^2+ Mobilization % Inh @10 μM
outcome-measure: inhibition at 10 µM (%)

Examples with their reported inhibition at 10 µM follow.
compound-smiles: COc1ccc(Cn2c(NCCNC(=N)Nc3ccc(C)cn3)nc(=O)n(Cc3ccc(F)cc3)c2=O)cc1
outcome-measure: inhibition at 10 µM
recorded-value: 95
//
compound-smiles: N=C(N)NCCNc1nc(=O)n(Cc2ccc(Cl)cc2)c(=O)n1Cc1ccco1
outcome-measure: inhibition at 10 µM
recorded-value: 73
//
compound-smiles: CCN(CCNc1nc(=O)n(Cc2ccc(Cl)c(Cl)c2)c(=O)n1Cc1ccc(OC)cc1)C(=N)N
outcome-measure: inhibition at 10 µM
recorded-value: 99
//
compound-smiles: COc1ccc(Cn2c(NCCNC(=N)Nc3nc4c(c(C(F)(F)F)n3)CCCC4)nc(=O)n(Cc3ccc(F)cc3)c2=O)cc1
outcome-measure: inhibition at 10 µM
recorded-value: 70
//
compound-smiles: COc1ccc(Cn2c(NCCNC(=N)Nc3ccc(F)cc3)nc(=O)n(Cc3ccc(F)cc3)c2=O)cc1
outcome-measure: inhibition at 10 µM
recorded-value: 102

a. COc1ccc(Cn2c(NCCNC(=N)NCCN3CCOCC3)nc(=O)n(Cc3ccc(F)cc3)c2=O)cc1
b. COc1ccc(Cn2c(NCCNC(=N)Nc3ccc(C)cc3)nc(=O)n(Cc3ccc(F)cc3)c2=O)cc1
Ask: Min inhibition at 10 µM? a | b The response must carry the label of the picked entry.
Reply: a
(a: 59%, b: 100%)

Reference for the values: patent US20080045535A1
